The measurements presented in this section are drawn from ChEMBL document CHEMBL1129270.

TARGET UNDER TEST: Human immunodeficiency virus type 1 protease (Human immunodeficiency virus 1)
EXPERIMENT: In vivo antiviral activity (IC50) against HIV-1 protease.
Assay type: organism-based
// ED50 lookup, one value per entry
The response must be a number in nM with no trailing unit.

COMPOUND: COc1ccc(CN(C[C@H](O)[C@H](Cc2ccccc2)NC(=O)[C@H](CC(N)=O)NC(=O)c2ccc3ccccc3n2)NC(=O)C(NC(=O)OCc2ccccc2)C(C)C)cc1 (stereo partly drawn)
UNIT NAME: nM
ED50: 15

COMPOUND: CCOC(=O)NC(C(=O)N[C@@H](Cc1ccccc1)[C@H](O)CN(CC1CCCCC1)NC(=O)C(NC(=O)OCC)C(C)C)C(C)C (stereo partly drawn)
UNIT NAME: nM
ED50: 55

Problem: Recall the recorded ED50 for "CC(C)(C)NC(=O)[C@@H]1C[C@@H]2CCCC[C@@H]2CN1C[C@@H](O)[C@H](Cc1ccccc1)NC(=O)[C@H](CC(N)=O)NC(=O)c1ccc2ccccc2n1" with Human immunodeficiency virus type 1 protease (Human immunodeficiency virus 1) and state it.
Result: 4.5

---

EXPERIMENT: Plasma Concentration after 30 min of oral administration to mice
Format: ADME, organism-based
PROTOCOL CONDITIONS: mouse
// concentration at 0.5 h lookup, one value per entry
The response must be a number in nM with no trailing unit.

# annotated cases, reported concentration at 0.5 h shown
COMPOUND: CCOC(=O)NC(C(=O)NN(CC1CCCCC1)C[C@@H](O)[C@H](Cc1ccccc1)NC(=O)C(NC(=O)OC)C(C)C)C(C)C (stereo partly drawn)
concentration at 0.5 h [nM]: 3800

COMPOUND: CCOC(=O)NC(C(=O)N[C@@H](Cc1ccccc1)[C@H](O)CN(CC1CCCCC1)NC(=O)C(NC(=O)OC)C(C)C)C(C)C (stereo partly drawn)
concentration at 0.5 h [nM]: 3200

COMPOUND: COCCOC(=O)NC(C(=O)N[C@@H](Cc1ccccc1)[C@H](O)CN(CC1CCCCC1)NC(=O)C(NC(=O)OCCOC)C(C)C)C(C)C (stereo partly drawn)
concentration at 0.5 h [nM]: 2700

COMPOUND: COCCOC(=O)NC(C(=O)NN(CC1CCCCC1)C[C@@H](O)[C@H](Cc1ccccc1)NC(=O)C(NC(=O)OC)C(C)C)C(C)C (stereo partly drawn)
concentration at 0.5 h [nM]: 1000

COMPOUND: C=CCOC(=O)NC(C(=O)N[C@@H](Cc1ccccc1)[C@H](O)CN(CC1CCCCC1)NC(=O)C(NC(=O)OCC=C)C(C)C)C(C)C (stereo partly drawn)
concentration at 0.5 h [nM]: 800

Problem: Can you share its concentration at 0.5 h? I mean this compound: CC(C)C(NC(=O)OCc1ccccc1)C(=O)NN(CC1CCCCC1)C[C@H](O)[C@H](Cc1ccccc1)NC(=O)[C@H](CC(N)=O)NC(=O)c1ccc2ccccc2n1 (stereo partly drawn)
Result: 300

Problem: Can you share its concentration at 0.5 h? I mean this compound: CCOC(=O)NC(C(=O)N[C@@H](Cc1ccccc1)[C@H](O)CN(CC1CCCCC1)NC(=O)C(NC(=O)OCC)C(C)C)C(C)C (stereo partly drawn)
Result: 6700

Problem: Can you share its concentration at 0.5 h? I mean this compound: CCOC(=O)NC(C(=O)N[C@@H](Cc1ccccc1)[C@H](O)CN(CC1CCCCC1)NC(=O)C(NC(=O)OCCOC)C(C)C)C(C)C (stereo partly drawn)
Result: 1000
